Below, each entry is listed with its recorded Kd.
# assay.target: HLA-A*02:01
# procedure.text: IEDB peptide-MHC binding, purified MHC/direct/fluorescence; filed as Kd, often an IC50 or EC50 that approximates it; bounds were set here for any values at or beyond the usual limits of such assays
# stated.conditions: source organism: Salmonella enterica

{"residue.codes": "RRRQWASCM", "Kd": "≥ 20 µM"}
{"residue.codes": "AMMWRIAQL", "Kd": "0.0262 µM"}
{"residue.codes": "MQQSGDEAF", "Kd": "≥ 20 µM"}

====

# assay.target: HLA-B*15:42
# procedure.text: IEDB peptide-MHC binding, purified MHC/competitive/fluorescence; filed as Kd, often an IC50 or EC50 that approximates it; bounds were set here for any values at or beyond the usual limits of such assays
# stated.conditions: source organism: Yersinia pestis Nepal516

{"residue.codes": "TVYPKTHYV", "assay.target": "HLA-B*15:42", "Kd": "≥ 5 µM"}

====

# assay.target: HLA-A*23:01
# procedure.text: IEDB peptide-MHC binding, purified MHC/competitive/radioactivity; filed as Kd, often an IC50 or EC50 that approximates it; bounds were set here for any values at or beyond the usual limits of such assays
# stated.conditions: source organism: Lymphocytic choriomeningitis virus (strain Armstrong)

{"residue.codes": "CYSSVNDRLV", "assay.target": "HLA-A*23:01", "unit.abbreviation": "nM", "Kd": 1870}

====

# assay.target: HLA-A*03:01
# procedure.text: IEDB peptide-MHC binding, purified MHC/direct/fluorescence; filed as Kd, often an IC50 or EC50 that approximates it; bounds were set here for any values at or beyond the usual limits of such assays
# stated.conditions: source organism: Lake Victoria marburgvirus - Popp
property: Kd (nM)

{"residue.codes": "KNYPASLHK", "assay.target": "HLA-A*03:01", "property": "Kd", "unit.abbreviation": "nM", "number": 102}

====

# assay.target: HLA-C*15:02
# procedure.text: IEDB peptide-MHC binding, purified MHC/direct/fluorescence; filed as Kd, often an IC50 or EC50 that approximates it; bounds were set here for any values at or beyond the usual limits of such assays
# stated.conditions: source organism: Vibrio cholerae AM-19226
property: Kd (nM)

{"residue.codes": "YALPSAGAF", "property": "Kd", "unit.abbreviation": "nM", "number": 386}

====

Below, each entry is listed with its recorded Kd.
# assay.target: HLA-A*68:01
# procedure.text: IEDB peptide-MHC binding, purified MHC/competitive/radioactivity; filed as Kd, often an IC50 or EC50 that approximates it; bounds were set here for any values at or beyond the usual limits of such assays
# stated.conditions: source organism: SARS coronavirus Tor2
property: Kd (nM)

{"residue.codes": "NQATTKTTFK", "value.modifier": "=", "number": 506}
{"residue.codes": "VTLAILTALR", "value.modifier": "=", "number": 14.1}
{"residue.codes": "VTTIMFLAR", "value.modifier": "=", "number": 84.6}
{"residue.codes": "SLIDLQELGK", "value.modifier": "=", "number": 94.5}
{"residue.codes": "WFFNNYLRK", "value.modifier": "=", "number": 391}
{"residue.codes": "GLFCLLNRY", "value.modifier": "=", "number": 16100}
{"residue.codes": "AAYYFMKFRR", "value.modifier": "=", "number": 79.2}
{"residue.codes": "SQNPLAELK", "value.modifier": "≥", "number": 63100}
{"residue.codes": "AQPLPQRQKK", "value.modifier": "≥", "number": 70200}
{"residue.codes": "YIFFASFYY", "value.modifier": "=", "number": 1.7}
{"residue.codes": "RQVVNVITTK", "value.modifier": "=", "number": 305}
{"residue.codes": "LFQLCTFTK", "value.modifier": "=", "number": 579}
{"residue.codes": "ATSRTLSYY", "value.modifier": "=", "number": 1200}
{"residue.codes": "LLMPILTLTR", "value.modifier": "=", "number": 89.7}
{"residue.codes": "ASANLAATK", "value.modifier": "=", "number": 78.3}
{"residue.codes": "MQKESDDYIK", "value.modifier": "=", "number": 1550}
{"residue.codes": "SVKGLTPSK", "value.modifier": "=", "number": 180}
{"residue.codes": "TVVIGTSKFY", "value.modifier": "=", "number": 1500}

====

# assay.target: HLA-A*69:01
# procedure.text: IEDB peptide-MHC binding, purified MHC/competitive/fluorescence; filed as Kd, often an IC50 or EC50 that approximates it; bounds were set here for any values at or beyond the usual limits of such assays
# stated.conditions: source organism: Escherichia coli O157:H7 str. Sakai
property: Kd

{"residue.codes": "HQIWLALRY", "assay.target": "HLA-A*69:01", "property": "Kd", "result": "≥ 20 µM"}

====

# assay.target: HLA-B*27:05
# procedure.text: IEDB peptide-MHC binding, purified MHC/direct/fluorescence; filed as Kd, often an IC50 or EC50 that approximates it; bounds were set here for any values at or beyond the usual limits of such assays
# stated.conditions: source organism: Vibrio vulnificus
property: Kd

{"residue.codes": "QKDINTPGY", "result": "≥ 20 µM"}

====

# assay.target: HLA-A*03:01
# procedure.text: IEDB peptide-MHC binding, purified MHC/competitive/fluorescence; filed as Kd, often an IC50 or EC50 that approximates it; bounds were set here for any values at or beyond the usual limits of such assays
# stated.conditions: source organism: Xanthobacter autotrophicus Py2
pKd: −log10 of the molar value.

{"residue.codes": "GQMYNMNTL", "pKd": "≤ 4.70"}

====

# assay.target: HLA-A*01:01
# procedure.text: IEDB peptide-MHC binding, purified MHC/competitive/fluorescence; filed as Kd, often an IC50 or EC50 that approximates it; bounds were set here for any values at or beyond the usual limits of such assays
# stated.conditions: source organism: Listeria monocytogenes J0161

{"residue.codes": "AALEGLSGF", "assay.target": "HLA-A*01:01", "Kd": "≥ 5 µM"}

====

Below, each entry is listed with its recorded pKd.
# assay.target: HLA-B*15:01
# procedure.text: IEDB peptide-MHC binding, purified MHC/direct/fluorescence; filed as Kd, often an IC50 or EC50 that approximates it; bounds were set here for any values at or beyond the usual limits of such assays
# stated.conditions: source organism: Camelpox virus M-96
pKd: −log10 of the molar value.

{"residue.codes": "FYLFTFTIY", "pKd": "≤ 4.70"}
{"residue.codes": "SHEQGDIAL", "pKd": "≤ 4.70"}

====

# assay.target: HLA-A*68:01
# procedure.text: IEDB peptide-MHC binding, purified MHC/competitive/radioactivity; filed as Kd, often an IC50 or EC50 that approximates it; bounds were set here for any values at or beyond the usual limits of such assays
# stated.conditions: source organism: Triticum aestivum

{"residue.codes": "VSFQQPLQQY", "Kd": "≥ 70.2 µM"}

====

# assay.target: HLA-A*23:01
# procedure.text: IEDB peptide-MHC binding, purified MHC/competitive/radioactivity; filed as Kd, often an IC50 or EC50 that approximates it; bounds were set here for any values at or beyond the usual limits of such assays
# stated.conditions: source organism: Mammarenavirus mopeiaense
property: Kd

{"residue.codes": "IKIPTHRHI", "result": "≥ 24.8 µM"}

====

# assay.target: HLA-B*57:01
# procedure.text: IEDB peptide-MHC binding, purified MHC/competitive/fluorescence; filed as Kd, often an IC50 or EC50 that approximates it; bounds were set here for any values at or beyond the usual limits of such assays
# stated.conditions: source organism: Vibrio vulnificus CMCP6
pKd: −log10 of the molar value.
property: pKd

{"residue.codes": "LMLHQQYNQ", "property": "pKd", "result": "≤ 4.70"}

====

# assay.target: HLA-A*69:01
# procedure.text: IEDB peptide-MHC binding, purified MHC/direct/fluorescence; filed as Kd, often an IC50 or EC50 that approximates it; bounds were set here for any values at or beyond the usual limits of such assays
# stated.conditions: source organism: Escherichia coli O157:H7

{"residue.codes": "YQAFRTKVH", "Kd": "≥ 20 µM"}

====

# assay.target: HLA-A*03:01
# procedure.text: IEDB peptide-MHC binding, purified MHC/competitive/radioactivity; filed as Kd, often an IC50 or EC50 that approximates it; bounds were set here for any values at or beyond the usual limits of such assays
# stated.conditions: source organism: Vaccinia virus WR

{"residue.codes": "QTSVNTVVR", "assay.target": "HLA-A*03:01", "unit.abbreviation": "nM", "value.modifier": "≥", "Kd": 63600}
{"residue.codes": "SIENKHQRR", "assay.target": "HLA-A*03:01", "unit.abbreviation": "nM", "value.modifier": "≥", "Kd": 23900}
{"residue.codes": "AAIDRQVSVK", "assay.target": "HLA-A*03:01", "unit.abbreviation": "nM", "value.modifier": "=", "Kd": 257}
{"residue.codes": "VSLSAYIIR", "assay.target": "HLA-A*03:01", "unit.abbreviation": "nM", "value.modifier": "=", "Kd": 8560}
{"residue.codes": "IMLEGETKLY", "assay.target": "HLA-A*03:01", "unit.abbreviation": "nM", "value.modifier": "=", "Kd": 1610}
{"residue.codes": "NARGEDTQMR", "assay.target": "HLA-A*03:01", "unit.abbreviation": "nM", "value.modifier": "≥", "Kd": 41400}
{"residue.codes": "AALDGTFQR", "assay.target": "HLA-A*03:01", "unit.abbreviation": "nM", "value.modifier": "=", "Kd": 6210}
{"residue.codes": "QSYKETVHK", "assay.target": "HLA-A*03:01", "unit.abbreviation": "nM", "value.modifier": "=", "Kd": 21.7}
{"residue.codes": "TSSFREKSR", "assay.target": "HLA-A*03:01", "unit.abbreviation": "nM", "value.modifier": "≥", "Kd": 65000}
{"residue.codes": "KIKTNDINVR", "assay.target": "HLA-A*03:01", "unit.abbreviation": "nM", "value.modifier": "=", "Kd": 2910}
{"residue.codes": "TLYVKALTK", "assay.target": "HLA-A*03:01", "unit.abbreviation": "nM", "value.modifier": "=", "Kd": 1.93}
{"residue.codes": "VINAPIKEFK", "assay.target": "HLA-A*03:01", "unit.abbreviation": "nM", "value.modifier": "=", "Kd": 4.87}
{"residue.codes": "SLNSMYTRLR", "assay.target": "HLA-A*03:01", "unit.abbreviation": "nM", "value.modifier": "=", "Kd": 47.2}
{"residue.codes": "TLISLNSMY", "assay.target": "HLA-A*03:01", "unit.abbreviation": "nM", "value.modifier": "=", "Kd": 155}
{"residue.codes": "TIRHMWSVVY", "assay.target": "HLA-A*03:01", "unit.abbreviation": "nM", "value.modifier": "=", "Kd": 294}
{"residue.codes": "ASKKDKLTVY", "assay.target": "HLA-A*03:01", "unit.abbreviation": "nM", "value.modifier": "=", "Kd": 6590}
{"residue.codes": "TTKDYFSFK", "assay.target": "HLA-A*03:01", "unit.abbreviation": "nM", "value.modifier": "=", "Kd": 18.1}
{"residue.codes": "GIADIRDKY", "assay.target": "HLA-A*03:01", "unit.abbreviation": "nM", "value.modifier": "≥", "Kd": 78000}
{"residue.codes": "MLEGETKLYK", "assay.target": "HLA-A*03:01", "unit.abbreviation": "nM", "value.modifier": "=", "Kd": 20.6}
{"residue.codes": "KTSKTTILSK", "assay.target": "HLA-A*03:01", "unit.abbreviation": "nM", "value.modifier": "=", "Kd": 44.4}
{"residue.codes": "YANCSSISIK", "assay.target": "HLA-A*03:01", "unit.abbreviation": "nM", "value.modifier": "=", "Kd": 452}
{"residue.codes": "IVHSYLKNYK", "assay.target": "HLA-A*03:01", "unit.abbreviation": "nM", "value.modifier": "=", "Kd": 97.3}
{"residue.codes": "FLLRHYYNK", "assay.target": "HLA-A*03:01", "unit.abbreviation": "nM", "value.modifier": "=", "Kd": 7.31}
{"residue.codes": "RLYDYFTRV", "assay.target": "HLA-A*03:01", "unit.abbreviation": "nM", "value.modifier": "≥", "Kd": 59300}
{"residue.codes": "NIAEYIAGLK", "assay.target": "HLA-A*03:01", "unit.abbreviation": "nM", "value.modifier": "=", "Kd": 132}
{"residue.codes": "TQIFEVYWY", "assay.target": "HLA-A*03:01", "unit.abbreviation": "nM", "value.modifier": "=", "Kd": 1850}
{"residue.codes": "DTIESAKTK", "assay.target": "HLA-A*03:01", "unit.abbreviation": "nM", "value.modifier": "=", "Kd": 4100}
